Source: ChEMBL document CHEMBL1201862

Test system: NCI-H522
TEST_DETAILS: NCI tumour cell line growth inhibition, 48 h
Activity calls are given as the source filed them. Cut-off read from the data, not from the text of the source: active = GI50 up to about 1.1 µM and inactive = higher.
Labels: active, inactive

compound="NC(C(=O)O)C(N)C(=O)O (stereo not drawn)" classification=inactive
compound="CCOC(=O)C(Cc1ccc(OC(=O)OC(C)(C)C)cc1)NC(=O)OC(C)(C)C (stereo not drawn)" classification=inactive
compound=NC(=O)c1cccc(/N=c2\oc3ccc(Br)cc3cc2-c2nc3ccccc3[nH]2)c1 classification=inactive
compound=C#C[C@]1(O)CC[C@H]2[C@@H]3CCc4cc(O)ccc4[C@H]3CC[C@@]21C classification=inactive
compound=CCS(=O)(=O)c1c2cc(OC)ccc2nc2ccc(OC)cc12 classification=inactive
compound=CN(C)CCNc1ccc2c(=O)n(CCN(C)C)c(=O)n3c4ccc([N+](=O)[O-])cc4c(=O)c1c23 classification=active
compound=C/C=C1/CN2[C@@H](C3=C[C@@H]4[C@@H]5N(C3=O)c3ccccc3[C@@]53CCN5C/C(=C/C)[C@@H]4C[C@H]53)C[C@@]34c5ccccc5N5C(=O)CC=C([C@H]1C[C@H]23)[C@H]54 classification=inactive
compound="CN(C)c1ccc(/C=C(\\NC(=O)c2ccccc2)C(=O)NC(Cc2c[nH]c3ccccc23)C(=O)O)cc1 (stereo not drawn)" classification=inactive

====

Test system: TK-10
TEST_DETAILS: NCI tumour cell line growth inhibition, 48 h
Active and inactive are the calls of the source. Rule as the data show it: active = GI50 up to about 1.1 µM and inactive = higher.
Below, each entry is listed alongside its reported GI50.
MEASUREMENT_LABEL: GI50

molecule="COC(=O)C1=CC2C(=O)OC1CC2C#N (stereo unspecified)" target_under_test=TK-10 result="> 100 µM (inactive)"
molecule="[N-]=[N+]=NC1(Cc2ccccc2)C(=O)Nc2ccccc2C1=O (stereo unspecified)" target_under_test=TK-10 result="> 100 µM (inactive)"
molecule=O=C(O)c1cnccc1-c1cc(=O)[nH]n1-c1ccccc1 target_under_test=TK-10 result="> 100 µM (inactive)"
molecule="CC(C)(C)c1cc(C2c3cc4c(cc3OC(O)(CO)C2C(=O)O)OCO4)cc(C(C)(C)C)c1O.CC(C)(C)c1cc(C2c3cc4c(cc3OC3(O)COC(=O)C23)OCO4)cc(C(C)(C)C)c1O (stereo unspecified)" target_under_test=TK-10 result="22.7 µM (inactive)"
molecule=Cc1cc2nc(C=C(C(F)(F)F)C(F)(F)F)oc2cc1C target_under_test=TK-10 result="2.45 µM (inactive)"
molecule=O=C1C[C@H]2CCCN2[C@@H](c2ccccc2)C1 target_under_test=TK-10 result="> 100 µM (inactive)"
molecule=COC(=O)C(C(=O)Cc1ccccc1[N+](=O)[O-])C(=O)OC target_under_test=TK-10 result="> 100 µM (inactive)"
molecule=CC1=CC(=O)/C(=C/N2C(=O)CNC2=S)C(=O)O1 target_under_test=TK-10 result="> 100 µM (inactive)"
molecule=COc1cc2c(cn1)[nH]c1ccccc12 target_under_test=TK-10 result="> 100 µM (inactive)"
molecule=COC(=O)c1cc(/C=C\c2cc(OC)ccc2OC)ccc1OC target_under_test=TK-10 result="50.8 µM (inactive)"
molecule="Cc1ccc(S(=O)(=O)N2C3C=CC(C3)[C@@H]2C(Cl)(Cl)Cl)cc1 (stereo partly specified)" target_under_test=TK-10 result="18.7 µM (inactive)"
molecule="Clc1ccc(OCC2NC3C=CC32)cn1 (stereo unspecified)" target_under_test=TK-10 result="> 100 µM (inactive)"
molecule=c1ccc(CCCNc2nnnc3ccccc23)cc1 target_under_test=TK-10 result="> 100 µM (inactive)"
molecule=Cn1cnc([N+](=O)[O-])c1Sc1nc(N)nc2c1ncn2Cc1ccccc1 target_under_test=TK-10 result="15.8 µM (inactive)"
molecule="O=C1CC(NCc2ccccc2)c2c(Cl)sc(Cl)c21 (stereo unspecified)" target_under_test=TK-10 result="31.3 µM (inactive)"
molecule=[N-]=[N+]=NC[C@H]1OCO[C@H](CN=[N+]=[N-])[C@@H](OCCOCCCl)[C@@H]1OCCOCCCl target_under_test=TK-10 result="> 100 µM (inactive)"
molecule=O=C1Sc2cc3ccccc3cc2C(=O)Sc2cc3ccccc3cc21 target_under_test=TK-10 result="55.2 µM (inactive)"
molecule="O=c1nc(N2CCN(c3ccccc3)CC2)ccn1C1OC(CO)C(O)C1O (stereo unspecified)" target_under_test=TK-10 result="> 100 µM (inactive)"
molecule=CC(C)(C)[C@H]1CO[C@]2(c3ccccc3)[C@@H]3C[C@@H]3C(=O)N12 target_under_test=TK-10 result="> 100 µM (inactive)"
molecule="C=C(C)[C@H]1C2=CC(C)=C(O2)[C@@H](O)[C@H](C(=C)C)CCC2=C[C@H]1OC2=O [KALLOLIDE A]" target_under_test=TK-10 result="> 100 µM (inactive)"
molecule="OC(CC1SCCCS1)c1ccccc1 (stereo unspecified)" target_under_test=TK-10 result="> 100 µM (inactive)"
molecule=CC(=O)O[C@H]1C[C@H](O[C@H]2[C@@H](O)C[C@H](O[C@H]3[C@@H](O)C[C@H](O[C@H]4CC[C@@]5(C)[C@H](CC[C@@H]6[C@@H]5CC[C@]5(O)[C@@H](C7=CC(=O)OC7)CC[C@]65O)C4)O[C@@H]3C)O[C@@H]2C)O[C@H](C)[C@H]1O[C@@H]1O[C@H](CO)[C@@H](O)[C@H](O)[C@H]1O target_under_test=TK-10 result="0.428 µM (active)"
molecule="CCOc1cc(NC(C)=O)ccc1C(=O)NN1C(=O)C(Oc2ccccc2)C1c1ccc(O)c(OC)c1 (stereo unspecified)" target_under_test=TK-10 result="40.8 µM (inactive)"
molecule=COc1ccc(OC)c2c3c([nH]c12)C(=O)Nc1nc(N)nc(N)c1C3 target_under_test=TK-10 result="> 100 µM (inactive)"
molecule=CCOC(=N)CC(=O)Nc1cccc(Cl)c1 target_under_test=TK-10 result="> 100 µM (inactive)"
molecule=O/N=C1/CCCC/C1=C/C=C/c1ccccc1 target_under_test=TK-10 result="29 µM (inactive)"
molecule=Nc1ccc(-c2nc3ccccc3s2)cc1Br target_under_test=TK-10 result="0.0141 µM (active)"
molecule=O=C(Cn1c(=O)oc2ccc(C(=O)c3ccc(F)cc3)cc21)c1ccccc1 target_under_test=TK-10 result="> 100 µM (inactive)"
molecule="CCOC(=O)C(Cc1ccc(OC(=O)OC(C)(C)C)cc1)NC(=O)OC(C)(C)C (stereo unspecified)" target_under_test=TK-10 result="71.1 µM (inactive)"
molecule=C[C@]1(O)CC(=O)c2c(c(-c3ccc4cc5c(c(O)c4c3O)C(=O)C[C@@](C)(O)C5)c3cccc(O)c3c2O)C1 target_under_test=TK-10 result="6.82 µM (inactive)"
molecule=NCCSS(=O)(=O)CCN target_under_test=TK-10 result="> 100 µM (inactive)"
molecule="CCOC(=N)CC(=O)NC(C)c1ccccc1 (stereo unspecified)" target_under_test=TK-10 result="> 100 µM (inactive)"
molecule=Cc1cc(S(=O)(=O)Nc2nc(N)n[nH]2)c(SCC(=O)O)cc1Cl target_under_test=TK-10 result="> 10 µM (inactive)"
molecule="CC[C@@]1(OC(=O)C(N)CCC(=O)O)C(=O)OCc2c1cc1n(c2=O)Cc2cc3ccccc3nc2-1 (stereo partly specified)" target_under_test=TK-10 result="4.33 µM (inactive)"
molecule=Cc1cccc(-c2nnc3s/c(=C\c4ccc5c(c4)OCO5)c(=O)n23)c1 target_under_test=TK-10 result="> 100 µM (inactive)"
molecule=c1csc(-c2cscc2-c2cccs2)c1 target_under_test=TK-10 result="91 µM (inactive)"
molecule=COc1cc(Nc2nc3cc(C(F)(F)F)ccc3nc2C)cc(OC)c1OC target_under_test=TK-10 result="10.7 µM (inactive)"
molecule=COc1cccc2nc3c(C(=O)NCCN(C)C)cccc3nc12 target_under_test=TK-10 result="11 µM (inactive)"
molecule=C=C(C)COC(=O)COCC(=O)OCC(=C)C target_under_test=TK-10 result="> 100 µM (inactive)"
molecule=O=C(Cn1c(C(=O)c2ccccc2)nc2ccccc21)c1ccccc1 target_under_test=TK-10 result="> 100 µM (inactive)"
molecule="N#CC1(C#N)C2CCCCC23OC(=N)C1(C#N)C(c1ccccc1)O3 (stereo unspecified)" target_under_test=TK-10 result="16.6 µM (inactive)"
